assay: Cell viability (MTT assay) in HaCaT; format: cell-based, Human; conditions: human, HaCaT keratinocytes; HaCaT, 1% FBS, 72 h, 1 μg/ml
measurement.type: cytotoxicity at 72 h, 1 μg/ml (%)

> print(dat)
                  substance               measurement.type  value.units  reading
1  H-WVQRVVEKFLK-OH [IS181]  cytotoxicity at 72 h, 1 μg/ml            %    -66.1

----------
Assay: Cell viability of splenocytes (MTT)
Format: cell-based, mouse
Conditions: mouse
Method: Cell lines: mouse splenocytes; test item: IS181; treatment regimen: single addition—24 hours; concentration range: 10 μg/ml-5000 μg/ml.A) Identification of non-cytotoxic concentrations: splenocytes were treated with IS181 for 24 hours. Effect on cell viability was assessed by MTT assay. […] Supernatants were collected and stored at −20° C. till analysed. Levels of IL-17 were analysed in supernatants by ELISA. Percent inhibition of IL-17 secretion was calculated with reference to ConA treated levels. […]
measurement.type: viability at 24 h, 10 µM

> print(dat)
                                   molecule  reading
1  COc1cc(/C=C/C(=O)CC(=O)/C=C/c2ccc(O)c(OC)c2)ccc1O [Curcumin, reference compound]      82%
